target: IDH1 R132H (Homo sapiens, UniProt O75874, R132H); assay: Assay for IDH1 R132H inhibitors (NADPH/aKG, resazurin detection); format: biochemical; conditions: enzyme assay of Example 12; read-out: IDH1R132H IC50
Sequence (O75874 whole entry R132H): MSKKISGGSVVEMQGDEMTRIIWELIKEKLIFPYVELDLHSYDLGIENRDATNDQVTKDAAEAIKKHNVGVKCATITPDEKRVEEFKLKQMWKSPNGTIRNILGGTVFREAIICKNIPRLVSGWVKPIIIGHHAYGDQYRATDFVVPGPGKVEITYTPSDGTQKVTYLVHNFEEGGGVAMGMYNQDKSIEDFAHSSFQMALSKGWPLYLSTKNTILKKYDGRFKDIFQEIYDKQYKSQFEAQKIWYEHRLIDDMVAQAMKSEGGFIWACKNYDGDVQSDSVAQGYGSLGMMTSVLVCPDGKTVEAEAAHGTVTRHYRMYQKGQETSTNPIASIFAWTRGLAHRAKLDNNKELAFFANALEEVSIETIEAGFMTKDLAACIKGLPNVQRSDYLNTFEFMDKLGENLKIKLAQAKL
Listing of entries alongside the reported IC50.

Check out these entries, answers already filled in.
[
  {
    "Compound": "N#Cc1cc(-c2cccc3cnccc23)c(C2CC2)nc1N1CCN(C(=O)CC(F)(F)F)[C@H](C2CC2)C1",
    "Measured Property": "IC50",
    "Data Value": "< 0.5 µM"
  },
  {
    "Compound": "Cc1cc(-c2cc(C#N)c(N3CCN(C(=O)C4CC4)[C@H](C4CC4)C3)nc2C2CC2)ccn1",
    "Measured Property": "IC50",
    "Data Value": "0.5 to 1 µM"
  },
  {
    "Compound": "COCCC(=O)N1CCN(c2nc(C3CC3)c(-c3cccc(CNS(C)(=O)=O)c3)c(C)c2C#N)C[C@H]1C",
    "Measured Property": "IC50",
    "Data Value": "< 0.5 µM"
  },
  {
    "Compound": "COCCC(=O)N1CCN(c2nc(C3CC3)c(-c3cnnc(OS(=O)(=O)C(F)(F)F)c3)cc2C#N)C[C@H]1C",
    "Measured Property": "IC50",
    "Data Value": "< 0.5 µM"
  },
  {
    "Compound": "C=Cc1cc(-c2cc(C#N)c(N3CCN(C(=O)CCO)[C@H](C)C3)nc2C2CC2)c2ccccc2n1",
    "Measured Property": "IC50",
    "Data Value": "< 0.5 µM"
  }
]

Consider the compound COCCC(=O)N1CCN(c2nc(C3CC3)c(-c3ccc(F)cc3)c(C)c2C#N)C[C@H]1C1CC1 and give its measured IC50.
< 0.5 µM

Okay, and C=Cc1cnnc(-c2c(C3CC3)nc(N3CCN(C(=O)C[C@H]4CCO4)[C@H](C(C)C)C3)c(C#N)c2C)c1 ?
< 0.5 µM

Okay, and N#Cc1cc(Nc2ccnc3ccccc23)c(C2CC2)nc1N1CCN(C(=O)C2CC2)[C@H](C2CC2)C1 ?
< 0.5 µM

Okay, and C=Cc1cc(-c2cc(C#N)c(N3CCN(C(=O)C[C@H](C)O)[C@H](C4CC4)C3)nc2C2CC2)ccn1 ?
< 0.5 µM

Okay, and COCCC(=O)N1CCN(c2nc(C3CC3)c(-c3ccc(C(=O)N(C)OC)cc3)cc2C#N)C[C@H]1C ?
0.5 to 1 µM

Okay, and COCCC(=O)N1CCN(c2nc(C3CC3)c(Nc3ccnc4ccccc34)cc2C#N)C[C@H]1C ?
< 0.5 µM

Okay, and C=C(C)c1cc(-c2cc(C#N)c(N3CCN(C(=O)CCOC)[C@H](C)C3)nc2C2CC2)ncn1 ?
< 0.5 µM

Okay, and C=Cc1cnc2c(-c3cc(C#N)c(N4CCN(C(=O)CCOC)[C@H](C5CC5)C4)nc3C3CC3)cccc2n1 ?
< 0.5 µM

Okay, and C=Cc1cc(-c2c(C3CC3)nc(N3CCN(C(=O)CCOC)[C@H](C)C3)c(C#N)c2C)ncn1 ?
< 0.5 µM
